Where do the numbers come from? From PubChem BioAssay (NCI).

method-notes: NCI Yeast Anticancer Drug Screen. Data for the cln2 rad14 strain (AID 165);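 note: 0% = growth equal to vehicle treated cultures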
condition-notes: S. cerevisiae cln2 rad14 strain, at 50.0 µM, stronger effect = higher value
About 79,000 compounds went through this panel and 15% of them were active in at least one assay; those are over-represented in the sample as a whole.
// Criterion not met strictly below -10% in growth inhibition; Criterion met otherwise

{"columns": ["compound", "class"],
 "data": [
  ["Clc1ccc2cc3ccccc3cc2c1", "Criterion not met"],
  ["COc1ccc(C(C#N)NC23CC4CC(CC(C4)C2)C3)cc1OC (configuration not stated)", "Criterion not met"],
  ["Nc1ncnc(N)c1NC(=O)c1ccc(CCc2ccccc2)c(Cl)c1", "Criterion not met"],
  ["CN1C(=O)C2CSCN2C1=S (configuration not stated)", "Criterion not met"],
  ["Nc1ccc2cccc(N)c2n1", "Criterion met"],
  ["O=C(O)c1ccc(NC(=S)NC(=O)c2cccc([N+](=O)[O-])c2)cc1", "Criterion met"],
  ["CC(=O)N1C(Nc2ccccn2)CCN1c1ccccc1 (configuration not stated)", "Criterion met"]
]}

----------
method-notes: NCI Yeast Anticancer Drug Screen. Data for the sgs1 mgt1 strain (AID 161);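 note: 0% = growth of cultures given vehicle only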
condition-notes: S. cerevisiae sgs1 mgt1 strain, at 50.0 µM, stronger effect = higher value
Compounds without any hit were thinned out: in the full panel of roughly 79,000, 15% have a hit. Activity calls are given as the source filed them. No stated cut-off is given here; in the data, active means growth inhibition above about 70%; inactive means the rest.
Listed below: growth inhibition values for each entry.
endpoint: growth inhibition

{"columns": ["compound", "reported-value"],
 "data": [
  ["CC1CN(C(=S)Nc2ccccc2)CCN1c1ccccc1 (stereo not given)", "-4.15% (inactive)"],
  ["C=CCCC1CC(OCC)OC(CCC=C)O1 (stereo not given)", "1.25% (inactive)"],
  ["CC(=O)OCC1OC(n2cnc3c(N)ncnc32)C(Nc2ccc([N+](=O)[O-])cc2[N+](=O)[O-])C(OC(C)=O)C1OC(C)=O (stereo not given)", "5.8% (inactive)"],
  ["CCOC1(OCC)C([N+](=O)[O-])=CC(=[N+]([O-])O)C=C1[N+](=O)[O-]", "-7.15% (inactive)"],
  ["CC1=CCC(=O)[C@]2(C)C(CC(=O)O)[C@]3(C)C4=C(C)C(c5ccoc5)C[C@@H]4O[C@@H]3[C@H](O)[C@@H]12 (stereo not given in full)", "9.65% (inactive)"],
  ["c1ccc2cc3c(NC4=NCCO4)cccc3cc2c1", "-2.7% (inactive)"],
  ["CC12CCC(O)CC1=CCC1C2CCC2(C)C(C(=O)O)=CCC12 (stereo not given)", "29.6% (inactive)"],
  ["CC(C)C1c2ccccc2C(=O)C1C(N)=O (stereo not given)", "-12.8% (inactive)"],
  ["O=COCCCCCc1ccccc1", "-2.55% (inactive)"],
  ["O=C(N/N=C\\c1c[nH]c2ccccc12)N/N=C/c1c[nH]c2ccccc12", "-7.25% (inactive)"]
]}

----------
Listed below: growth inhibition values for each entry.
method-notes: NCI Yeast Anticancer Drug Screen. Data for the mec2-1 strain (AID 157)
condition-notes: S. cerevisiae mec2-1 strain, at 50.0 µM, stronger effect = higher value
This is part of a sample that, as a whole, favours compounds with a hit. Of some 79,000 tested, about 15% had one in any assay. Where a SMILES comes first, the peptide text is derived from it. The star is where a group is joined. Boc = CC(C)(C)OC(=O)*

{"columns": ["compound", "growth inhibition [%]"],
 "data": [
  ["CN(C)C1C=CS(=O)(=O)C1 (configuration not stated)", -13.9],
  ["Nc1ccc(C(=O)O)c(N)c1", 1.45],
  ["[N-]=[N+]=Nc1ccc(NCCCCCC(=O)ON2C(=O)CCC2=O)c([N+](=O)[O-])c1", 9.25],
  ["N#CCCc1c(O)ccc2ccccc12", 0.6],
  ["Cc1c(-c2ccccc2)noc1-n1nnc2ccccc2c1=O", 29.6],
  ["CC(=O)CC(=O)NCCN(C)C", -43],
  ["CCC(C#N)C1=CCCCCC1 (configuration not stated)", 3.75],
  ["CC(=N\\N=C\\c1ccccn1)/C(C)=N/N=C(C)/C(C)=N/N=C/c1ccccn1", 17.9],
  ["CC(CC(C)(C)C)C(=O)NC(N)=O (configuration not stated)", -4.05],
  ["COC(=O)C1=C(C)N(NC(=O)c2ccccc2)C(C)(O)C12CCOC2=O (configuration not stated)", -8.35],
  ["COc1cc(OC)c(C2CC(C)(O)Oc3cc4c(cc32)OCO4)c(OC)c1 (configuration not stated)", 3.8],
  ["Cc1cc(N=[N+]=[N-])c2cc3c(cc2n1)OCO3", -7.5],
  ["CCOC(=O)[C@H]1C(CC)=NOC1C (some centres not stated)", 13.2],
  ["COc1c(CC=C(C)C)c(O)c(C(CC(C)C)c2c(O)c(CC=C(C)C)c(O)c(C(C)=O)c2O)c(O)c1C(C)=O (configuration not stated)", 41.5],
  ["CC(=O)c1ccc(O)c(CN(C2CCCCC2)C2CCCCC2)c1O", -10.3],
  ["CC(C)C(NC(=O)OC(C)(C)C)C(=O)N1CCCC1C(=O)O (stereo not drawn) (Boc-Val-Pro-OH; configuration not given here)", -1.5],
  ["Cc1ccc(S(=O)CC(CF)OCn2cc(C)c(=O)[nH]c2=O)cc1 (configuration not stated)", 6.65],
  ["CCOc1ccccc1/C=N/NS(=O)(=O)c1ccc([N+](=O)[O-])cc1", -23.1],
  ["CC(C)Cc1ccc(C(C)CC2=CCC(CN(C)C)C2=O)cc1 (configuration not stated)", 91.5],
  ["Cc1c(C)c(C)c(CNNC(=S)Nc2ccc(S(=O)(=O)N3CCCCC3)cc2)c(C)c1C", -17.9],
  ["COc1cc(NC(=O)CC(C)=O)cc(OC)c1", -5],
  ["CN1C(=O)C(Cl)(C#N)C(c2ccccc2)N(C)C1c1ccccc1 (configuration not stated)", 8.05],
  ["O=[N+]([O-])c1cc(C(F)(F)F)ccc1Cl", 10.3],
  ["N#Cc1ccccc1NC(=O)C(=O)C1NC(=S)NC1=O (configuration not stated)", -1.75],
  ["O=C(NC(c1ccccc1)C(Cl)(Cl)c1ccccc1)c1ccccc1 (configuration not stated)", -7.5],
  ["CCOC(=O)Cc1csc(NC(NC(=O)OCC)(C(=O)OCC)C(F)(F)F)n1 (configuration not stated)", -0.3],
  ["CC(C)c1ccc(OC(=N)c2ccccc2)cc1", -7.35],
  ["Cc1ccc(C)c(N2C(=O)C(=O)C(c3nc4ccccc4s3)/C(=N/NC(=O)NN)C2=O)c1 (configuration not stated)", 14.1],
  ["CCC1(N=[N+]=[N-])C(=O)c2ccccc2N(c2ccccc2)C1=O (configuration not stated)", -13],
  ["C=C1C(=O)OC(CCCCCCCCCCCCCC(C)=O)[C@H]1C(=O)O (some centres not stated)", -9.75],
  ["COc1ccc(Cc2cc(N=O)c(OC)cc2O)cc1", -7.3],
  ["CC(C)CC(NC(=O)C(O)C(N)Cc1ccccc1)C(=O)O (configuration not stated)", 26.6],
  ["C1=C(N2CCOCC2)/C(=C2\\SC(=Nc3ccccc3)C(=Nc3ccccc3)N2c2ccccc2)CC1", -5.4],
  ["c1cc2c3c(c1)ccc1ccc4cccc(c4c13)O2", -2.4],
  ["O=C1C(=Cc2cccc(O)c2)N=C(c2ccccc2)N1n1c(-c2ccccc2)nc2ccccc2c1=O", 5.15],
  ["C=COC(=O)C(Cc1ccccc1)NC(=O)OCc1ccccc1 (configuration not stated)", 10.8],
  ["CCN(CC)CCC1CC/C(=C\\c2ccc(OC)cc2)C1=O (configuration not stated)", -4.35],
  ["O=C(O)c1c(Br)c(Br)c(Br)c(Br)c1C(=O)Nc1ccc(Cl)c(Cl)c1", 5.15],
  ["COC1OCCCO1", 11.6],
  ["CC(=O)NC1CC2c3ccccc3C1([N+](=O)[O-])c1ccccc12 (configuration not stated)", 17.6],
  ["C=CCC1=C(C)C[C@@H]2CCC(=O)C=C12", -24.9],
  ["CC(C)(C)c1ccc(OCCCl)c(Cl)c1", -2.45],
  ["Cc1cc2[nH]c(=O)n(C3OC(CO)C(O)C3O)c2cc1C (configuration not stated)", 19.1],
  ["O=C(N=Nc1c(O)[nH]c2ccc(Br)cc12)c1ccncc1", 2.8],
  ["CCCn1c(C)nc2cc(C(F)(F)F)cc(N)c21", 11.4],
  ["N#Cc1c(N)c(C(=O)O)nn(-c2cccc(C(F)(F)F)c2)c1=O", 1.7],
  ["CCCCCC(=O)C(C)=O", -5.9]
]}

----------
method-notes: NCI Yeast Anticancer Drug Screen. Data for the bub3 strain (AID 167)
condition-notes: S. cerevisiae bub3 mutant strain, at 50.0 µM, stronger effect = higher value
About 79,000 compounds went through this panel and 15% of them were active in at least one assay; those are over-represented in the sample as a whole.

{"columns": ["mol", "growth inhibition (%)"],
 "data": [
  ["Nc1nc2c(ncn2Cc2ccc(Cl)c(Cl)c2)c(=O)[nH]1", -0.5],
  ["Cc1c(C(=O)CC(=O)C(=O)Nc2cc(Cl)ccc2Cl)[n+](=O)c2ccccc2n1[O-]", 1.1],
  ["CCOC(=O)/C=C\\[C@H]1OC(C)(C)O[C@H]1[C@H](O)[C@H]1COC(C)(C)O1", -11.8],
  ["CC(=O)OCCSc1ccc(Cl)cc1", -23.3],
  ["N#CSCc1ccc(CSC#N)c(Br)c1", 10.4],
  ["CC/C(=N\\NS(=O)(=O)c1ccc(C)cc1)c1ccc(Br)cc1", -3.6]
]}
